molecular target: PDGFR-beta (Homo sapiens, UniProt P09619); experiment: PDGFR-beta kinase assay; assay type: biochemical; settings: 10 μM compound; read-out: PDGFR-beta percent of inhibition
Sequence (P09619 33-1106, species assumed): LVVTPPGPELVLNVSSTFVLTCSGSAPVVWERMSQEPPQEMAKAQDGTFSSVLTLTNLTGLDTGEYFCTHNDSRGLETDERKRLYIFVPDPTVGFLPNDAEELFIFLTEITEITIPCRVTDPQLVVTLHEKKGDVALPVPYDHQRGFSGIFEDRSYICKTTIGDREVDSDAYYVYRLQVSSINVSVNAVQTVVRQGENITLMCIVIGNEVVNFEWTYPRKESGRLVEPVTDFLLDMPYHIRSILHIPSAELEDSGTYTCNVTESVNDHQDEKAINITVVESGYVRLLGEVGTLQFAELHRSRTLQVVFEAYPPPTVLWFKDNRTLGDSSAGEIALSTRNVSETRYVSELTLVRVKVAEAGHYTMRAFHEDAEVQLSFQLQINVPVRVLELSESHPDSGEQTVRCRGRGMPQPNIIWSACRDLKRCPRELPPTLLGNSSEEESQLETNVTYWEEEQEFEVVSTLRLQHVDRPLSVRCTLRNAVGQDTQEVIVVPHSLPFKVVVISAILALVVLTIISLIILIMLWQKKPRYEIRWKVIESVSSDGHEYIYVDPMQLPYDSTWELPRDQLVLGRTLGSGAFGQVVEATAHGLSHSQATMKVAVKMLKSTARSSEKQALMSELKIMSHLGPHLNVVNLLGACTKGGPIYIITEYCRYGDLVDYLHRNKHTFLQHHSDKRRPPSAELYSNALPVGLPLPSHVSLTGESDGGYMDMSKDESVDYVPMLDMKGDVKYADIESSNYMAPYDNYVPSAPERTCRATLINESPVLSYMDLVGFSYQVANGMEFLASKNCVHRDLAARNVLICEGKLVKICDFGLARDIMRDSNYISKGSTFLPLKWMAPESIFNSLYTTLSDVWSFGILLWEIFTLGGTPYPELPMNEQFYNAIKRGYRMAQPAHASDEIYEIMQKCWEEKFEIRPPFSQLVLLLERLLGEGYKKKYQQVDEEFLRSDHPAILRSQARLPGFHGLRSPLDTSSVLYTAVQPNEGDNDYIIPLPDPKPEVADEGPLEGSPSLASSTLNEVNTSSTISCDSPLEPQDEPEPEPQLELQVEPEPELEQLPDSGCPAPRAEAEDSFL
Measured inhibition at 10 µM values are reported for all entries that follow.
Give the number; % is assumed, so skip it.

{"sample-smiles": "Oc1cccc(Nc2nc(C3CC3)nc3sc4c(c23)CCCC4)c1", "system": "PDGFR-beta (Homo sapiens, UniProt P09619)", "units-label": "%", "inhibition at 10 µM": -5}
{"sample-smiles": "Clc1cccc(Nc2nc(C3CC3)nc3sc4c(c23)CCCC4)c1", "system": "PDGFR-beta (Homo sapiens, UniProt P09619)", "units-label": "%", "inhibition at 10 µM": -2}

Tell me its inhibition at 10 µM given `O=[N+]([O-])c1cccc(Nc2nc(C3CC3)nc3sc4c(c23)CCCC4)c1` as the entry. -14

Supply inhibition at 10 µM value. Item: `Fc1cccc(Nc2ncnc3sc4ccccc4c23)c1` -3

Give me measured inhibition at 10 µM, please, for this molecule: `COc1cccc(Nc2nc(C3CC3)nc3sc4c(c23)CCCC4)c1` -7

In one line, give reported inhibition at 10 µM of the entry `Fc1cccc(Nc2ncnc3sc4c(c23)CCCC4)c1` . 4

Retrieve inhibition at 10 µM measured for `Fc1ccc(Nc2ncnc3sc4c(c23)CCCC4)cc1` and print it. -12

Item `Nc1cccc(Nc2ncnc3sc4c(c23)CCCC4)c1` : provide inhibition at 10 µM 0

# return recorded inhibition at 10 µM for entry `Clc1ccc(Nc2ncnc3sc4c(c23)CCCC4)cc1` 15

Give the reported value of inhibition at 10 µM for this record: `Clc1cccc(Nc2nc(C3CC3)nc3sc4ccccc4c23)c1` 0

Please report the measured inhibition at 10 µM for `Brc1cccc(Nc2ncnc3sc4ccccc4c23)c1` 10

Return inhibition at 10 µM (reported value) for this molecule: `N#Cc1cccc(Nc2ncnc3sc4c(c23)CCCC4)c1` -5

Fill in reported inhibition at 10 µM for this entry: `FC(F)(F)c1cccc(Nc2nc(C3CC3)nc3sc4c(c23)CCCC4)c1` -4
